- Test system: EMT6 tumor-bearing model mice
- assay method text: Biodistribution in tumor and organs of tumor-bearing mouse (Example 14)
- Format: in vivo, mouse (Balb/c nu/nu)
- test conditions: 60 minutes after administration, mean
# Blood per record follows
measurement name: Blood

> print(dat)
                                   compound     measured
1      O=[N+]([O-])c1nccn1CCC(CO)(CO)C[18F]  2.81 % ID/g
2   O=[N+]([O-])c1nc(CO)cn1CC(CO)(CO)C[18F]  0.60 % ID/g
3  O=[N+]([O-])c1nccn1CC(O)C[18F] (stereo not shown) [[^18F]FMISO, [^18F]fluoromisonidazole, reference compound]  4.45 % ID/g
4       O=[N+]([O-])c1nccn1CC(CO)(CO)C[18F]  1.70 % ID/g

* * *

- Test system: EMT6 tumor-bearing model mice
- assay method text: Biodistribution in tumor and organs of tumor-bearing mouse (Example 14)
- Format: in vivo, mouse (Balb/c nu/nu)
- test conditions: 120 minutes after administration, mean
measurement name: T/M (tumor/muscle ratio)

> print(dat)
                                   compound  measured
1      O=[N+]([O-])c1nccn1CCC(CO)(CO)C[18F]      1.62
2   O=[N+]([O-])c1nc(CO)cn1CC(CO)(CO)C[18F]      1.68
3  O=[N+]([O-])c1nccn1CC(O)C[18F] (stereo not shown) [[^18F]FMISO, [^18F]fluoromisonidazole, reference compound]      1.88
4       O=[N+]([O-])c1nccn1CC(CO)(CO)C[18F]      2.03

* * *

Listed below: T/B (tumor/blood ratio) values for each entry.
- Tested on: EMT6 tumor-bearing model mice
- assay method text: Biodistribution in tumor and organs of tumor-bearing mouse (Example 14)
- Format: in vivo, mouse (Balb/c nu/nu)
- test conditions: 60 minutes after administration, mean
- Protocol: The biodistribution of compounds 1 to 3 and [^18F]FMISO in a tumor and each of the organs of a tumor-bearing mouse was measured. Tumor-bearing model mice used in this experiment were the same as those prepared in Example 10, and 3 or 4 cases that had attained a tumor volume of 200 to 400 mm^3 were selected from each group. […]
measurement name: T/B (tumor/blood ratio)

> print(dat)
                                   compound                  tested.system  measured
1   O=[N+]([O-])c1nc(CO)cn1CC(CO)(CO)C[18F]  EMT6 tumor-bearing model mice      2.11
2       O=[N+]([O-])c1nccn1CC(CO)(CO)C[18F]  EMT6 tumor-bearing model mice      1.42
3  O=[N+]([O-])c1nccn1CC(O)C[18F] (stereo not shown) [[^18F]FMISO, [^18F]fluoromisonidazole, reference compound]  EMT6 tumor-bearing model mice      1.06
4      O=[N+]([O-])c1nccn1CCC(CO)(CO)C[18F]  EMT6 tumor-bearing model mice      0.86

* * *

- Tested on: EMT6 tumor-bearing model mice
- assay method text: Biodistribution in tumor and organs of tumor-bearing mouse (Example 14)
- Format: in vivo, mouse (Balb/c nu/nu)
- test conditions: 120 minutes after administration, mean
- Experimental: The biodistribution of compounds 1 to 3 and [^18F]FMISO in a tumor and each of the organs of a tumor-bearing mouse was measured. Tumor-bearing model mice used in this experiment were the same as those prepared in Example 10, and 3 or 4 cases that had attained a tumor volume of 200 to 400 mm^3 were selected from each group. […]
measurement name: T/B (tumor/blood ratio)

> print(dat)
                                   molecule         measurement.name  measured
1  O=[N+]([O-])c1nc(CO)cn1CC(CO)(CO)C[18F] [Compound 2]  T/B (tumor/blood ratio)      3.18
2  O=[N+]([O-])c1nccn1CC(O)C[18F] (stereo not shown) [[^18F]FMISO, [^18F]fluoromisonidazole, reference compound]  T/B (tumor/blood ratio)      1.91
3  O=[N+]([O-])c1nccn1CCC(CO)(CO)C[18F] [Compound 3]  T/B (tumor/blood ratio)      2.11
4  O=[N+]([O-])c1nccn1CC(CO)(CO)C[18F] [Compound 1]  T/B (tumor/blood ratio)      2.47

* * *

- Tested on: EMT6 tumor-bearing model mice
- assay method text: Biodistribution in tumor and organs of tumor-bearing mouse (Example 14)
- Type: in vivo, mouse (Balb/c nu/nu)
- test conditions: 120 minutes after administration, mean
Measured Heart by item
measurement name: Heart

> print(dat)
                                   compound  measurement.name     measured
1       O=[N+]([O-])c1nccn1CC(CO)(CO)C[18F]             Heart  1.90 % ID/g
2  O=[N+]([O-])c1nccn1CC(O)C[18F] (stereo not shown) [[^18F]FMISO, [^18F]fluoromisonidazole, reference compound]             Heart  3.33 % ID/g
3      O=[N+]([O-])c1nccn1CCC(CO)(CO)C[18F]             Heart  1.82 % ID/g
4   O=[N+]([O-])c1nc(CO)cn1CC(CO)(CO)C[18F]             Heart  0.74 % ID/g

* * *

- System: EMT6 tumor-bearing model mice
- assay method text: Biodistribution in tumor and organs of tumor-bearing mouse (Example 14)
- Type: in vivo, mouse (Balb/c nu/nu)
- test conditions: 60 minutes after administration, mean
measurement name: Kidney

> print(dat)
                                   compound     measured
1       O=[N+]([O-])c1nccn1CC(CO)(CO)C[18F]  4.23 % ID/g
2      O=[N+]([O-])c1nccn1CCC(CO)(CO)C[18F]  9.95 % ID/g
3  O=[N+]([O-])c1nccn1CC(O)C[18F] (stereo not shown) [[^18F]FMISO, [^18F]fluoromisonidazole, reference compound]  8.52 % ID/g
4   O=[N+]([O-])c1nc(CO)cn1CC(CO)(CO)C[18F]  1.86 % ID/g

* * *

- Test system: EMT6 tumor-bearing model mice
- assay method text: Biodistribution in tumor and organs of tumor-bearing mouse (Example 14)
- Format: in vivo, mouse (Balb/c nu/nu)
- test conditions: 60 minutes after administration, mean
The molecules listed here are annotated with their T/M (tumor/muscle ratio).
measurement name: T/M (tumor/muscle ratio)

> print(dat)
                                   molecule  measured
1  O=[N+]([O-])c1nccn1CC(O)C[18F] (stereo not shown) [[^18F]FMISO, [^18F]fluoromisonidazole, reference compound]      1.24
2       O=[N+]([O-])c1nccn1CC(CO)(CO)C[18F]      1.39
3      O=[N+]([O-])c1nccn1CCC(CO)(CO)C[18F]      0.87
4   O=[N+]([O-])c1nc(CO)cn1CC(CO)(CO)C[18F]      0.91

* * *

- Test system: EMT6 tumor-bearing model mice
- assay method text: Biodistribution in tumor and organs of tumor-bearing mouse (Example 14)
- Assay type: in vivo, mouse (Balb/c nu/nu)
- test conditions: 120 minutes after administration, mean
We begin with a simple list: items and their reported Urine.
measurement name: Urine (% ID)

> print(dat)
                                   compound   uom  measured
1   O=[N+]([O-])c1nc(CO)cn1CC(CO)(CO)C[18F]  % ID     90.92
2       O=[N+]([O-])c1nccn1CC(CO)(CO)C[18F]  % ID     77.76
3      O=[N+]([O-])c1nccn1CCC(CO)(CO)C[18F]  % ID     68.78
4  O=[N+]([O-])c1nccn1CC(O)C[18F] (stereo not shown) [[^18F]FMISO, [^18F]fluoromisonidazole, reference compound]  % ID     41.45

* * *

Each entry below carries its recorded Large intestine.
- System: EMT6 tumor-bearing model mice
- assay method text: Biodistribution in tumor and organs of tumor-bearing mouse (Example 14)
- Type: in vivo, mouse (Balb/c nu/nu)
- test conditions: 60 minutes after administration, mean
measurement name: Large intestine (% ID/g)

> print(dat)
                                   compound  measured
1  O=[N+]([O-])c1nccn1CC(CO)(CO)C[18F] [Compound 1]      3.71
2  O=[N+]([O-])c1nccn1CCC(CO)(CO)C[18F] [Compound 3]      5.40
3  O=[N+]([O-])c1nccn1CC(O)C[18F] (stereo not shown) [[^18F]FMISO, [^18F]fluoromisonidazole, reference compound]     13.76
4  O=[N+]([O-])c1nc(CO)cn1CC(CO)(CO)C[18F] [Compound 2]      0.96
